Test system: TK-10 renal
Test: NCI-60 one-dose screen, 48 h
Details: 10 µM unless noted
Method: Growth inhibition of the TK-10 human tumor cell line is measured as a screen for anti-cancer activity. Cells are grown in 96 well plates and exposed to the test compound for 48 hours. Compounds are tested at a single concentration, which is 10^-5 M for most compounds. The reported endpoint is percent growth (GI% or GIPRCNT), where numbers from 0 - 100% represent growth inhibition, and numbers from -100% - 0 represent cell death. For example, a value of 40 represents 60% growth inhibition. […]
About 83,000 compounds went through this panel and 20% of them were active in at least one assay; those are over-represented in the sample as a whole. The source made the active and inactive calls. The calls were made as follows: active = growth percent below 10; inactive = the rest.
Possible outcomes: active, inactive

| COMPOUND | CLASS_NAME |
| --- | --- |
| Nc1ncc([N+](=O)[O-])cn1 | inactive |
| Cc1ccc(S(=O)(=O)Oc2ccc3sc4c(CO)ccc(NCCN(C)C)c4c(=O)c3c2)cc1 | active |
| C/C(O)=C(/C=N/C(=S)Nc1ccccc1)C(=O)Nc1ccccc1C | inactive |
| O=C1CSc2ccccc2N1 | inactive |
| Cc1cc2nc(C)c(C)nc2cc1C | inactive |
| CC(C)(N)CO[C@H]1C[C@H]2CC[C@@]1(C)C2(C)C | inactive |
| O=C1Nc2ccccc2/C1=C\c1ccccc1O | inactive |
| Cc1cc(CO)c(O)c(CO)c1 | inactive |
| Nc1ccc(F)c(Cl)c1F | inactive |
| O=C(CCl)Oc1ccc([N+](=O)[O-])cc1 | inactive |
| O=C(NCc1ccccc1)c1cccc([N+](=O)[O-])c1 | inactive |
| CCOC(=O)c1ccc(NC(C)=O)o1 | inactive |
| CC(O)C(F)(F)C(F)(F)C(F)(F)F (centres undefined) | inactive |
| Nc1ccc(F)cc1F | inactive |
| Cc1[nH]nc(C(N)=O)c1[N+](=O)[O-] | inactive |
| Cc1ccc(O)c(N)c1 | inactive |
| CCC(=O)C1C(=O)c2ccccc2C1=O | inactive |
| Cn1c(=O)c2[nH]c(CC(=O)O)nc2n(C)c1=O | inactive |
| COc1cc(C(=O)O)c(O)c(C(C)(C)C)c1 | inactive |
| COc1ccc(Br)c2c1C(=O)CC2 | inactive |
| CCOC(=O)c1c(C)[nH]c(C)c1C=O | inactive |
| OC(CBr)CCBr (centres undefined) | inactive |
| CCNc1ncnc2[nH]ncc12 | inactive |
| CCOC(=O)CNC | inactive |
| COC(c1ccc2c(c1)OCO2)C(C)Br (centres undefined) | inactive |
| NC(=S)N/N=C/c1ccc(Cl)cc1 | inactive |
| Cc1[nH]n(-c2ccccc2)c(=O)c1C=NC(=S)C(N)=S | inactive |
| O=C(NCc1ccco1)Nc1cccc2c(NC(=O)NCc3ccco3)cccc12 | inactive |
| COc1ccc(/C=C\C(=O)/C=C/c2ccc(OC)cc2)cc1 | inactive |
